biological target: NR1/NR2B (Homo sapiens (Human), UniProt Q13224); experiment: Cell assay: FDSS Ca2+ influx inhibition in HEK293 cells expressing NR1/NR2B; details: read-out: NR2B NAM IC50; HEK293 cells expressing NR1/NR2B, Ca2+ influx;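 further: Fluo-8 Ca2+ signal read on Hamamatsu FDSS 6000 after glutamate, glycine and Ca2+ challenge following 10 min compound preincubation, end/baseline fluorescence ratio compared with MK801 control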
Sequence (Q13224 27-1484, other chains not shown): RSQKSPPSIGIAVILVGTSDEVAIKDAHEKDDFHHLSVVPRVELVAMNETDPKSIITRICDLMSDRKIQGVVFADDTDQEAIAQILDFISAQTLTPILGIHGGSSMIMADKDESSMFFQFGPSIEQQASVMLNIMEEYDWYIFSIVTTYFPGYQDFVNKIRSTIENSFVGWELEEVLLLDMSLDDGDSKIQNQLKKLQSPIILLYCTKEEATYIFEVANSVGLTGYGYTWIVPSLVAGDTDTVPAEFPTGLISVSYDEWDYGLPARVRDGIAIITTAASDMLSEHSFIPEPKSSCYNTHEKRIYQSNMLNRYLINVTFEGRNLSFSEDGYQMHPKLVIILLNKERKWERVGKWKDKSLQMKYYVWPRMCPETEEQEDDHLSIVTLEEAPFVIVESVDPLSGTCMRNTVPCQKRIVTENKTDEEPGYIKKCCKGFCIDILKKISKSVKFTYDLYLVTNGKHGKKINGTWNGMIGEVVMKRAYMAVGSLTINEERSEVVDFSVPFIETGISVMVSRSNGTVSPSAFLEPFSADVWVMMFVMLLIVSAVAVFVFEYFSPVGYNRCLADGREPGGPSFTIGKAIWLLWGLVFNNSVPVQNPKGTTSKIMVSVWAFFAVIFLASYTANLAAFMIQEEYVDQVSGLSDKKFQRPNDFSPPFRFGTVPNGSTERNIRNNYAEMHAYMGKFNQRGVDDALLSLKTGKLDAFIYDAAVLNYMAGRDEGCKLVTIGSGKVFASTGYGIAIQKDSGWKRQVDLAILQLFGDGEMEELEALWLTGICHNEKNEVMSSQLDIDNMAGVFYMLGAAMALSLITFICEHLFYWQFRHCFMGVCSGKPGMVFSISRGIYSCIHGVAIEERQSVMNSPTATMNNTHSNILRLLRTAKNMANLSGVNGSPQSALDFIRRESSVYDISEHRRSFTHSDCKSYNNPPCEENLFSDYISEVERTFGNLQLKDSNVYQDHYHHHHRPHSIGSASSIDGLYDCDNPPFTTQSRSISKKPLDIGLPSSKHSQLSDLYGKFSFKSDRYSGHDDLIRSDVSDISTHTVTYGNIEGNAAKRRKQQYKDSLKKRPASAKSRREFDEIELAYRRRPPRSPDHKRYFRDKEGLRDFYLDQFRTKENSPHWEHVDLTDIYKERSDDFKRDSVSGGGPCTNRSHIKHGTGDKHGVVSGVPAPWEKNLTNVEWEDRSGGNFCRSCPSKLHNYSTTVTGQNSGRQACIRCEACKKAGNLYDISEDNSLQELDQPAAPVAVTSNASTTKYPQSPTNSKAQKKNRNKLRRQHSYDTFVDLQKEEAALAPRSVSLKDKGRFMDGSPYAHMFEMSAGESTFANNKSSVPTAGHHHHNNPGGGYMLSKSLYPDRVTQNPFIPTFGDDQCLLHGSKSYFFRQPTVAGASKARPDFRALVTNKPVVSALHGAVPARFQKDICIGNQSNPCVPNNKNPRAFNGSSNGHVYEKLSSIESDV
RESULT_TYPE: IC50 (nM)

O=C(CN1C[C@@H]2C[C@@](O)(Cc3ccccc3)C[C@@H]2C1)c1ccc(-c2ccc(O)cc2)cc1: 10000
O=C1CCc2cc(C(=O)CN3C[C@@H]4C[C@@](O)(Cc5ccccc5)C[C@@H]4C3)ccc2N1: 137

I = CO[C@@]1(Cc2ccccc2)C[C@H]2CN(CC(=O)c3ccc(O)cc3)C[C@H]2C1
II = CO[C@@]1(Cc2ccccc2)C[C@H]2CN(CC(=O)c3ccc(O)c(F)n3)C[C@H]2C1
III = O=C(CN1C[C@@H]2C[C@](F)(Cc3ccccc3)C[C@@H]2C1)c1ccc(O)cc1
QUERY: Sort (3 compounds) by IC50: min first. Use the labels to give the requested order.
RESULT: I, III, II
(I: 57.2 nM, III: 175 nM, II: 10000 nM)
